# Experimental Target: T1, human intermediate-affinity IL-2 receptor complex, IL-2 CD122/CD132 (β/γ), on cells (human, UniProt P14784 27-551; P31785 23-369)
# T1 sequence (looked up) 1: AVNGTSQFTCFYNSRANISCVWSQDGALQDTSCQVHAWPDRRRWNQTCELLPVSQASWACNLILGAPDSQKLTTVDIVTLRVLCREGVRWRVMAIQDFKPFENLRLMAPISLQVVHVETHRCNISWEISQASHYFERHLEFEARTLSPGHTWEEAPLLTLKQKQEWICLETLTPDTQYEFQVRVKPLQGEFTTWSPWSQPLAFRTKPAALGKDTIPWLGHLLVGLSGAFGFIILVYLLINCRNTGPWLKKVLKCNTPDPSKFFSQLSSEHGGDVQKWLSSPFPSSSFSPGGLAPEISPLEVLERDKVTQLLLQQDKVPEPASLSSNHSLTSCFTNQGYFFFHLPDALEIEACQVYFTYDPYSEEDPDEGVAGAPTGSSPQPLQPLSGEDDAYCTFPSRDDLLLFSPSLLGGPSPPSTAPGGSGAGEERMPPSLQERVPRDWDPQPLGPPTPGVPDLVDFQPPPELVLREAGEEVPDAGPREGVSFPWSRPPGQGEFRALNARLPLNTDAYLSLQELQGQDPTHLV
# T1 sequence (looked up) 2: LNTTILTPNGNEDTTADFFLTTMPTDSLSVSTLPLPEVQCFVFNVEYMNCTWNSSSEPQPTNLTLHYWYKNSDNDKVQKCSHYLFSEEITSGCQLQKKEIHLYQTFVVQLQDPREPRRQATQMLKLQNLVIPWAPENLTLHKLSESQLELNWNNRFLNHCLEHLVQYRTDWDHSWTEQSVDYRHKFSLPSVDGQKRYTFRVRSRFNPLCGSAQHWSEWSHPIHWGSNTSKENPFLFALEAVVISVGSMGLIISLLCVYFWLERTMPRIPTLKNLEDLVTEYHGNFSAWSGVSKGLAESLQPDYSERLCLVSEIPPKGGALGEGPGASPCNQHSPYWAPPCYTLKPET
# Assay Name: cell-based or functional assay
Test Readout: EC50 (read off the curve), pSTAT5 MFI in NK cells of hPBMC

- Fc-IL2-K43N:Y45T-L72N:Q74T (Fc fusion) GGGGSGGGGSAPTSSSTKKTQLQLEHLLLDLQMILNGINNYKNPKLTRMLTFNFTMPKKATELKHLQCLEEELKPLEEVLNNATSKNFHLRPRDLISNINVIVLELKGSETTFMCEYADETATIVEFLNRWITFCQSIISTLT: ~6 nM
- Fc-IL2-R38N:L40T-K43N:Y45T (Fc fusion) GGGGSGGGGSAPTSSSTKKTQLQLEHLLLDLQMILNGINNYKNPKLTNMTTFNFTMPKKATELKHLQCLEEELKPLEEVLNLAQSKNFHLRPRDLISNINVIVLELKGSETTFMCEYADETATIVEFLNRWITFCQSIISTLT: ~8 nM
- Fc-IL2v (Fc fusion) GGGGSGGGGSAPASSSTKKTQLQLEHLLLDLQMILNGINNYKNPKLTRMLTAKFAMPKKATELKHLQCLEEELKPLEEVLNGAQSKNFHLRPRDLISNINVIVLELKGSETTFMCEYADETATIVEFLNRWITFAQSIISTLT: ~3 nM

Req: Fill in: EC50 (read off the curve), pSTAT5 MFI in NK cells of hPBMC of Fc-IL2-K43N:Y45T-E62N:K64T (Fc fusion) GGGGSGGGGSAPTSSSTKKTQLQLEHLLLDLQMILNGINNYKNPKLTRMLTFNFTMPKKATELKHLQCLEENLTPLEEVLNLAQSKNFHLRPRDLISNINVIVLELKGSETTFMCEYADETATIVEFLNRWITFCQSIISTLT is ___
Resp: ~6 nM
